# test.system: T1, rat nerve growth factor (beta-NGF) (rat, UniProt P25427 122-241)
# T1 construct: mature; also called rat NGF; recombinant rat β-NGF
# T1 sequence (P25427 122-241): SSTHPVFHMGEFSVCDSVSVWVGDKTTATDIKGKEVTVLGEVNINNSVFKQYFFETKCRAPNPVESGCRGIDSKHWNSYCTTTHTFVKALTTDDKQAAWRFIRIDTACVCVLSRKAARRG
# assay.text: purified scFv, inhibition of rat NGF binding to TrkA fusion protein
readout.name: pIC50
Quick note: pIC50 means taking -log10 of the concentration in moles per liter.

-- ask Fill blank: measured pIC50 of the binder 1147G9 scFv (scFv, V domains shown, also called LOT1147G09) VH: EVQLVQSGAEVKKPGSSVKVSCKASGGTFSAYGISWVRQAPGQGLEWIGGIIPIFNTGNSAQSFQGRVTITADESTSTAYMEVSSLRSDDTAVYYCASSSRIYDLNPSLTAYYDMDVWGQGTMVTVSS VL: QAVLTQPSSVSTPPGQKVTVSCSGSSSNIGNNYVSWYQQLPGTAPKLLIYDNNKRPSGIPDRFSGSKSGTSATLGITGLQTGDEADYYCGTWDSSLSAWVFGGGTKLTVL is ____.
-- reply 11.00
